Reported values of Enzyme Activity Endpoint Assay: Fc for individual entries
Molecular target: pooled human IgG (human IgG1, 2, 3 and 4)
Numbers only here, please. The scale is ng/µL.

- PROTEIN: "PRT-584 (protein) MANQEIRYSEETPKTITSVWTKGVTPPTNFIYNEDVLHAPYIANQGWYDITKTFNGKDDLLCGAATAGNMLHWWFDQNKEQIERYLKKHPEKQKINFNGEQMFDVKEAIDTKDSQTNSKLFEYFKDKAFPYLSTKHLGVFPDHVIDMFINGYRLSLTNHGPTPVKRQTKDPRGGIFDAVFTRGDQSKLLTSRHDFKEKTLNEISDLIKQELTEGKALGLSHTYANVRINHVINLWGADFNAEGNLEAIYVTDSDSNASIGMKKYYVGVNSAGKVAISAKEIEGDNIGAQVLGLFTLSTGQDIWEQTNLEHHHHHH"
  OUTCOME_MEASURE: "Enzyme Activity Endpoint Assay: Fc"
  QUANTITATIVE_RESULT: 369

IN: Respond only with Enzyme Activity Endpoint Assay: Fc recorded for PRT-582 (protein) MANQEIRYSKAKPKVITSVWTKGVTPPTQFTKNEDVFHAPYLANQGWYDITKTFNGKDDLLCGAATAGNMLHWWFDQNKEQIERYLKKHPEKQKINFNGEQMFDVKEAIDTKDSQTNSKLFNYFKDKAFPYLSTKHLGVFPDHVIDMFINGYRLSLTNHGPTPVKEQNKDPRGGIFDDVFTRGDQSKLLTSRHDFKEKTLKEISDLIKQELKEGKALGLSHTYANVRINHVINLWGADFDAEGNLVAIYVTDSDSNASIGMKKYYVGVNSAGKVAISAKEIEDDNIGAQVLGLFTLSTGKDIWEKTNLEHHHHHH
OUT: 183
